System: Fibroblast
Assay: Multiplex assay against human fibroblast
Type: toxicity, cell-based
Conditions: 12 h, 1 µM, compound concentration 1 uM, replicate 1
Population Healthy Nuclei (%) under 70% gets yes (1), anything at or over 70% gets no (0).

Worked examples, 8 compounds total:
Br.CS(=O)(=O)Nc1c(O)ccc2c1CCCC2C1=NCCN1 (stereo not drawn): no (0)
COc1cccc2c1c(NS(=O)(=O)c1ccc(Cl)s1)nn2Cc1cccc(CNC(=O)C(C)(C)O)c1: yes (1)
CCCCCC(O)/C=C/[C@H]1C(=O)CC(O)C1C/C=C\CCCC(=O)O (stereo partly drawn): yes (1)
N#Cc1cc(F)cc(-c2nc(-c3ccc(F)cn3)no2)c1: yes (1)
CCc1cc2cc(NS(=O)(=O)c3ccc(C#N)cc3)ccc2n(CC)c1=O: yes (1)
COC[C@@H](c1ccc(C(F)(F)F)cc1)N1CCN(C2(C)CCN(C(=O)c3c(C)ncnc3C)CC2)C[C@@H]1C.O=C(O)/C=C\C(=O)O [VICRIVIROC MALEATE]: yes (1)
NCCc1cn(S(=O)(=O)c2c(Cl)nc3sccn23)c2ccccc12.O=C(O)C(=O)O: yes (1)
C[C@H](N)COC(=O)[C@@H](CCCCN)NC(=O)Cc1c(-c2ccc3ccccc3c2)[nH]c2c1ccc1ccccc12: yes (1)

Determine whether this compound shows Population Healthy Nuclei (%) lower than 70% (ties excluded): CCCCC(=O)N(Cc1ccc(-c2ccccc2-c2nnn[nH]2)cc1)[C@H](C(=O)O)C(C)C
no (0)

Determine whether this compound shows Population Healthy Nuclei (%) lower than 70% (ties excluded): CC(C)c1noc(N2CCC(COc3ccc(-c4ccc(S(C)(=O)=O)cc4)nc3)CC2)n1
no (0)

Determine whether this compound shows Population Healthy Nuclei (%) lower than 70% (ties excluded): CC(C)(C)c1cc(NC(=O)Nc2ccc(-c3cn4c(n3)sc3cc(OCCN5CCOCC5)ccc34)cc2)no1
yes (1)

Determine whether this compound shows Population Healthy Nuclei (%) lower than 70% (ties excluded): CCCCC1=NC2(CCCC2)C(=O)N1Cc1ccc(-c2ccccc2-c2nnn[nH]2)cc1
yes (1)

Determine whether this compound shows Population Healthy Nuclei (%) lower than 70% (ties excluded): Cl.NCCc1ccc(O)c(O)c1 [DOPAMINE HYDROCHLORIDE]
yes (1)
